Origin of measurements: PubChem BioAssay (NCI)

tested on: SK-MEL-2 melanoma
// values below are reported GI50

Cc1ccc(NCSc2ccc(Cl)cc2)cc1 :: > 100 µM
COC(=O)[C@H](Cc1ccccc1)NC(=O)c1csc([C@@H](C[C@H](C(C)C)N(C)C(=O)[C@@H](NC(=O)[C@H]2CCCCN2C)C2CC2)OC(C)=O)n1 :: 0.492 µM
COc1ccc2nc3ccc(OC)cc3c(SCCCN)c2c1 :: 6.05 µM
COc1ccc(C2=CC(c3cc(OC)c(OC)c(OC)c3)n3ncnc3N2)cc1 (stereo unspecified) :: 16.9 µM
CCCC/C(=N\N=C(N)N)c1ccc(F)cc1 :: 3.09 µM

In the following, a different compound is considered.
# assay system SK-MEL-2 melanoma: give GI50 of C/C(=C(/c1ccc(O)cc1)c1ccc(OCCN2CCCC2)cc1)c1ccccc1
1.97 µM
